- Tested on: Phakopsora pachyrhizi
- assayMethodText: Test A: test suspension sprayed on soybean seedlings, inoculated next day with Phakopsora pachyrhizi (Asian soybean rust), visual disease rating
- Format: in vivo
- setupConditions: Rate 10 ppm test suspension, relative to the controls
- Description: General protocol for preparing test suspensions for Tests A-C: the test compounds were first dissolved in acetone in an amount equal to 3% of the final volume and then suspended at the desired concentration (in ppm) in acetone and purified water (50/50 mix by volume) containing 250 ppm of the surfactant PEG400 (polyhydric alcohol esters). The resulting test suspensions were then used in Tests A-C. The test suspension was sprayed to the point of run-off on soybean seedlings. […]
The reader will find reported Test A rating (% disease control) values listed item by item below.
Entry rule: numbers only, all in %.

compound: C#CCON=Cc1cnn(Cc2ccc(-c3noc(C(F)(F)F)n3)cc2)c1 [compound 387]
assayTarget: Phakopsora pachyrhizi
unitOfMeasurement: %
quantitativeReadout: 100
//
compound: COCCCOC(=O)c1cnn(Cc2ccc(-c3noc(C(F)(F)F)n3)cc2)c1 [compound 474]
assayTarget: Phakopsora pachyrhizi
unitOfMeasurement: %
quantitativeReadout: 100
//
compound: FC(F)(F)c1nc(-c2ccc(Cn3cc4cc(Br)cnc4n3)cc2)no1 [compound 414]
assayTarget: Phakopsora pachyrhizi
unitOfMeasurement: %
quantitativeReadout: 100
//
compound: COCCNC(=O)c1csc(Cc2ccc(-c3noc(C(F)(F)F)n3)cc2)n1 [compound 394]
assayTarget: Phakopsora pachyrhizi
unitOfMeasurement: %
quantitativeReadout: 100
//
compound: COC(=O)c1cnn(CCCc2ccc(-c3noc(C(F)(F)F)n3)cc2)c1 [compound 436]
assayTarget: Phakopsora pachyrhizi
unitOfMeasurement: %
quantitativeReadout: 100

Request: Which Test A rating (% disease control) is listed for N#CCNC(=O)c1csc(COc2ccc(-c3noc(C(F)(F)F)n3)cc2)n1 [compound 473] ?
Result: 94

Request: Which Test A rating (% disease control) is listed for O=C(NCCCC(F)(F)F)c1coc(Cc2ccc(-c3noc(C(F)(F)F)n3)cc2)n1 [compound 398] ?
Result: 100
